Assay: probe aEGFR binding to arrayed compounds – biochemical, biotinylated probe, 635/667 nm fluorescence, primary screen (AID 1097);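 also: probe is a biotinylated anti-EGFR antibody binding compounds printed on slides; score combines fluorescence near 667 nm and signal to noise of each spot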
Conditions: small-molecule microarray, higher = more signal
Please use y whenever composite z-score is not below -0.05, and n whenever it is.

QUERY: Assess whether reported composite z-score for COc1ccc(C#Cc2ccc3c(c2)[C@]2(C(=O)N3)[C@H](c3ccc(OCCO)cc3)N3[C@H](c4ccccc4)[C@H](c4ccccc4)OC(=O)[C@H]3[C@@H]2C(=O)N2CCN(c3ncccn3)CC2)cc1 sits at -0.05 or higher.
RESULT: n

QUERY: Given C=CCNC(=O)[C@H]1[C@@H]2C(=O)O[C@@H](c3ccccc3)[C@@H](c3ccccc3)N2[C@@H](c2ccc(OCCO)cc2)[C@]12C(=O)N(C(=O)OCCOC)c1ccc(C#CC3=CCCCC3)cc12 , state whether its composite z-score is at least -0.05.
RESULT: y

QUERY: Check this compound for composite z-score at or above -0.05: CC(C)(C)OC(=O)CC[C@]1(C(=O)N2CCCCC2)N=C(c2ccc(OCCCO)cc2)O[C@H]1c1ccccc1CN=[N+]=[N-]
RESULT: y

QUERY: Is composite z-score at least -0.05? Consider COCCOC(=O)N1C(=O)[C@@]2(c3cc(C#CC4(O)CCCCCC4)ccc31)[C@H](C(=O)N1CCN(c3ncccn3)CC1)[C@H]1C(=O)O[C@H](c3ccccc3)[C@H](c3ccccc3)N1[C@@H]2c1ccc(O)cc1
RESULT: n

QUERY: Quick check, composite z-score >= -0.05? Cc1cc(C)c(C(O)C2C=CC3C(=O)N(c4ccccc4)C(=O)C3N2Nc2ccc([N+](=O)[O-])cc2)c(C)c1 (stereo not drawn)
RESULT: y

QUERY: composite z-score >= -0.05 for C=C(/C(=C/C[C@@H](OC(=O)c1ccncc1)c1cccc(OCCO)c1)c1cc(C(=O)OC)ccc1OC)C(C)C ?
RESULT: y

QUERY: Determine whether this compound has composite z-score no lower than -0.05: C[N+](C)(C)CCCCCCNC(=O)[C@H]1C[C@H]2C(=O)N3CCC[C@H]3C(=O)N2[C@H]1c1cccc(OCCO)c1
RESULT: y

QUERY: Please check the record COc1cccc(C[C@H]2C[C@@H](CO[Si](C(C)C)(C(C)C)C(C)C)N3C(=O)[C@]4(C(C)=O)O[C@]23[C@H]2C(=O)N(C)C(=O)[C@H]24)c1 and state if its composite z-score is at or above -0.05.
RESULT: y

QUERY: Textbook exercise: given the entry CCOC(=O)C[C@H]1[C@H](OC(=O)c2ccc(C(=O)c3ccccc3)cc2)[C@@H](NC(=O)C2CCCCC2)c2cc(OCCCO)ccc2N1C(=O)Cc1ccc(OC)cc1 , state whether its composite z-score is greater than or equal to -0.05.
RESULT: y

Entry source: PubChem BioAssay
